# Test system: IMR5
# Test Protocol: In vitro cytotoxicity assay (MTT), neuroblastoma IMR-5
# Assay type: cell-based, human
# Recorded Conditions: 72 hrs exposure, medium with non-inactivated FBS (esterase)
Endpoint: pEC50
Numbers only, as −log10 of the molar value.

// query pEC50 value for entry "O=C(O)c1ccccc1C(=O)OCc1cc(O)c2c(c1)C(=O)c1cccc(O)c1C2=O"
4.30

* * *

# Tested on: SJ-N-KP
# Test Protocol: In vitro cytotoxicity assay (MTT), neuroblastoma SJ-N-KP
# Assay type: cell-based, human
# Recorded Conditions: 72 hrs exposure, medium with 10% inactivated FBS, listed as Ex. 11: ALA-HCI, hydrochloride
Counter-ions that a name gives are not always drawn.
Endpoint: pEC50
Give bare numbers, as −log10 of the molar value.

Fill in the blank: the reported pEC50 of C[C@H](N)C(=O)OCc1cc(O)c2c(c1)C(=O)c1cccc(O)c1C2=O [Ex. 11: ALA, ala-aloe-emodin hydrochloride] is ____.
4.15
